Test system: MKL-2
Assay: qHTS assay to identify novel small-molecules to repurpose for Merkel cell carcinoma treatment (AID 1296009); also: nearly all actives have a fitted effect of over 60% in size
Settings: MCC and control cell lines, CellTiter-Glo viability, 72 h; series mostly up to 46 µM
Records with an inconclusive call do not appear. Activity calls are given as the source filed them. Calls follow the shape of the dose curve; as a rule, active = well fitted inhibition curve with a large enough effect; inconclusive = small, poorly fitted or top-dose-only effect; inactive = flat fitted curve, though single readings scatter.
property: outcome

CCCCC(CC)COC(=O)/C=C/c1ccc(OC)cc1 (stereo not drawn) = inactive
COc1ccc2c(c1)c1c3n2CCN(C)C3=NCC1 = inactive
CO[C@]12C[C@@H](COC(=O)c3cncc(Br)c3)CN(C)[C@@H]1Cc1cn(C)c3cccc2c13 = inactive
Cc1ccc(-c2ncc(Cl)cc2-c2ccc(S(C)(=O)=O)cc2)cn1 = inactive
O=C1c2cccc3c2[C@H](CCC3)CN1[C@@H]1CN2CCC1CC2 = inactive
O=C(O)P(=O)(O)O = inactive
CC(C)Nc1cccnc1N1CCN(C(=O)c2cc3cc(NS(C)(=O)=O)ccc3[nH]2)CC1 = inactive

// moving on: another record for outcome
Query Nc1nc(-c2ccccc2)c(Br)c(=O)[nH]1 yields outcome of inactive
